In this section we review reported MIC w CaCl2 (4 mm) values for a set of compounds.
# Test system: Staphlococcus aureus strain Smith
# Assay type: cell-based
Starred links: 1 amine or outer side, 2 acyl side, 3 side chain; linkers in the order of their positions; H or OH if unused. Positions of bridges follow the written chain, without caps; N, C: chain ends. Non-standard residues stand in square brackets, D forms with d. Residues, ends and D or L forms follow the SMILES beside them. ξ: configuration not given here. *: point of attachment. Hexadecanesulfonyl = CCCCCCCCCCCCCCCCS(=O)(=O)*; ξAbu(βξ-NH2) = CC(N[*:3])C(N[*:1])C(=O)[*:2]; ξAsp(βξ-Me) = CC(C(=O)O)C(N)C(=O)O; ξAbu(3ξ-NH2) = CC(N)C(N)C(=O)O; X1 = CCCCCCCCCCS(=O)(=O)*; Pip = O=C(O)[CH]1CCCCN1; Dap = NC[CH](N)C(=O)O
Note: unit mg/mL is implicit; provide only the numeric part.

CCCCCCCCCCCCCCCCS(=O)(=O)NC(Cc1ccccc1)C(=O)NC(CC(=O)O)C(=O)NC1CNC(=O)C2CCCN2C(=O)C(C(C)CC)NC(=O)C(C(C)O)NC(=O)CNC(=O)C(CC(=O)O)NC(=O)CNC(=O)C(CC(=O)O)NC(=O)CNC(=O)C2CCCCN2C1=O (stereo not shown) [Compound 56] (Hexadecanesulfonyl-FD[Dap][Pip]GDGDGTIP; lactam 3-C; configuration not given here) | 4
CCCCCCCCCCS(=O)(=O)NCC(=O)NC(CC(=O)O)C(=O)NC1C(=O)N2CCCCC2C(=O)NC(C(C)C(=O)O)C(=O)NC(CC(=O)O)C(=O)NCC(=O)NC(CC(=O)O)C(=O)NCC(=O)NC(C(C)N)C(=O)NC(C(C)C)C(=O)N2CCCC2C(=O)NC1C (stereo not drawn) [Compound 58] (X1-GD[ξAbu(βξ-NH2)][Pip][ξAsp(βξ-Me)]DGDG[ξAbu(3ξ-NH2)]VP; lactam 3-C; configuration not given here) | 1

Summary line: CCCCCCCCCCCCCCCCS(=O)(=O)NC(Cc1c[nH]c2ccccc12)C(=O)NC(CC(=O)O)C(=O)NC1CNC(=O)C2CCCN2C(=O)C(C(C)CC)NC(=O)C(C(C)O)NC(=O)CNC(=O)C(CC(=O)O)NC(=O)CNC(=O)C(CC(=O)O)NC(=O)CNC(=O)C2CCCCN2C1=O (stereo not shown) [Compound 52] (Hexadecanesulfonyl-WD[Dap][Pip]GDGDGTIP; lactam 3-C; configuration not given here) , Staphlococcus aureus strain Smith, reported MIC w CaCl2 (4 mm) = 4

Summary line: CCCCCCCCCCCCCCCCS(=O)(=O)NC(Cc1ccccc1)C(=O)NC(CC(=O)O)C(=O)NC1C(=O)N2CCCCC2C(=O)NC(C(C)C(=O)O)C(=O)NC(CC(=O)O)C(=O)NCC(=O)NC(CC(=O)O)C(=O)NCC(=O)NC(C(C)N)C(=O)NC(C(C)C)C(=O)N2CCCC2C(=O)NC1C (stereo not drawn) [Compound 62] (Hexadecanesulfonyl-FD[ξAbu(βξ-NH2)][Pip][ξAsp(βξ-Me)]DGDG[ξAbu(3ξ-NH2)]VP; lactam 3-C; configuration not given here) , Staphlococcus aureus strain Smith, reported MIC w CaCl2 (4 mm) = 4

---

# Test system: deacylase
# protocol: in vitro
# Format: in vitro ADME, Actinoplanes utahensis NRRL 12052
# conditions: Actinoplanes utahensis, cells or culture medium
Positions of bridges follow the written chain, without caps; N, C: chain ends. Non-standard residues stand in square brackets, D forms with d. Residues, ends and D or L forms follow the SMILES beside them. ξ: configuration not given here. *: point of attachment. Hexadecanesulfonyl = CCCCCCCCCCCCCCCCS(=O)(=O)*; ξD = NC(CC(=O)O)C(=O)O; ξI = CCC(C)C(N)C(=O)O; ξPip = O=C(O)C1CCCCN1; ξT = CC(O)C(N)C(=O)O; ξDap = NCC(N)C(=O)O; ξP = O=C(O)C1CCCN1
assay.endpoint: remaining at 16 h, 0.5 mg/mL (%)
Note: unit % is implicit; provide only the numeric part.

Recorded remaining at 16 h, 0.5 mg/mL (molecule CCCCCCCCCCCCCCCCS(=O)(=O)N[C@@H](Cc1c[nH]c2ccccc12)C(=O)N[C@@H](CC(=O)O)C(=O)NC1CNC(=O)C2CCCN2C(=O)C(C(C)CC)NC(=O)C(C(C)O)NC(=O)CNC(=O)C(CC(=O)O)NC(=O)CNC(=O)C(CC(=O)O)NC(=O)CNC(=O)C2CCCCN2C1=O (stereo partly shown) (Hexadecanesulfonyl-WD[ξDap][ξPip]G[ξD]G[ξD]G[ξT][ξI][ξP]; lactam 3-C) ): 53

The reported measurements were obtained from patent US6750199B2.
